Test system: PYL3 (Arabidopsis thaliana)
Construct: 6X-His; made in house; host or cells: E. coli BL21[DE3]pLysS
Sequence (Q9SSM7 whole entry): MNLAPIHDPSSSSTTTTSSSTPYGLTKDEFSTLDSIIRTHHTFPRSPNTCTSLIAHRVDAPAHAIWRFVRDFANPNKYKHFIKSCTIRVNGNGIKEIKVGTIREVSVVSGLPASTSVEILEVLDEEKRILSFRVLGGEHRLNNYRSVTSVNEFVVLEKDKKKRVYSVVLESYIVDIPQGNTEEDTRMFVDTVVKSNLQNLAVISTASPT
Sequence (Q9CAJ0 23-511 partner): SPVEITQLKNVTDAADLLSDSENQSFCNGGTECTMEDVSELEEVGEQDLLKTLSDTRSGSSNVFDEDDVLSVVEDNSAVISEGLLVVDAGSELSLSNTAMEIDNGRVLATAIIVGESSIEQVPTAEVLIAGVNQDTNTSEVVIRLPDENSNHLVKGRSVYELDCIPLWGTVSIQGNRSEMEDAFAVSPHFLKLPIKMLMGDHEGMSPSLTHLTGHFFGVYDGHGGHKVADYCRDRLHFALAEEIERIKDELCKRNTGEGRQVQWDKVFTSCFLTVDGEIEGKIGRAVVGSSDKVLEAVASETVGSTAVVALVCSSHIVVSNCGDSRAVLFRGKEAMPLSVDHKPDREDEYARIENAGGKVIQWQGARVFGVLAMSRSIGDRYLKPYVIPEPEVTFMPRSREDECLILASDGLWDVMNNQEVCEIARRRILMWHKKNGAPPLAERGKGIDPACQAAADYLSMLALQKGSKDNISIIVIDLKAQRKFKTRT
Protocol summary: receptor-mediated PP2C (HAB1) inhibition in vitro assay
Assay type: biochemical
Setup conditions: Table VII; read-out: PP2C Dose Curves PYL3 (IC50)
pIC50: −log10 of the molar value.
Reported metric: pIC50

Would you please look over these solved cases?
| Compound structure string | pIC50 |
| --- | --- |
| N#Cc1ccc(CS(=O)(=O)NC(=O)C2(c3cccc(C#N)c3)CC2)cc1 | 4.68 |
| CCC(CC)(C(=O)NS(=O)(=O)Cc1ccc([N+](=O)[O-])cc1)c1ccccc1 | < 4.30 |
| CC(C)(C(=O)NS(=O)(=O)Cc1ccc(C#N)cc1)c1cccc(C#N)c1 | < 4.30 |

[Q] GET /values?readout=pIC50&item= N#Cc1ccc(CS(=O)(=O)NC(=O)C2(c3ccc(Br)cc3)CC2)cc1
[A] < 4.30
